B1: KCNK9 (parent)
chain: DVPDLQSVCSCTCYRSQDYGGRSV

# Variants of: B1
# Assay Method Text: protein stability index of a GFP-peptide fusion (GPS, HEK-293T) (PSI 1-6); higher = more stable;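 further: lentivirally expressed fusions sorted by FACS into six bins by GFP to DsRed ratio, PSI derived from sequencing read proportions per bin multiplied by bin number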
# Condition Description: c terminus: a fixed tail appended
Items are presented alongside their recorded protein stability index.
Reply briefly: the number, and no unit.

Worked set:
# Sequence Input, protein stability index
measured = [
    ("DCPDLQSVCSCTCYRSQDYGGRSV", 2.07),
    ("DVPDLQSVLSCTCYRSQDYGGRSV", 2.16),
    ("DVPDLQSVCSCSCYRSQDYGGRSV", 1.31),
]

So, DVPDLQSVCSCTCYRSQDYGGRSW ? Its protein stability index was 2.42

So, DVPDLQSRCSCTCYRSQDYGGRSV ? Its protein stability index was 2.29

So, DVPDLQSVCSCTCYRSQDYGGRWV ? Its protein stability index was 2.53
